experiment: Determination of drug solubility; format: physicochemical; settings: pure water, 25 °C
READOUT_TYPE: solubility at 48 h (µg/mL)

CC(C(=O)O)c1ccc(-c2ccccc2)c(F)c1 (stereo not shown) [SR-FP, Flurbiprofen]    89.1

====

assay: In vitro permeation experiment of FP drug-in-adhesive patches in two-chamber diffusion cells; format: in vitro ADME, rabbit; conditions: permeant SR-FP; patch 5% drug (w/w); enhancer equimolar to 5% 4-TER (control: no enhancer)
We begin with a simple list: items and their reported Tlag of SR-FP.
READOUT_TYPE: Tlag of SR-FP (h)

CCCCCCC(=O)OC1(C(C)C)CC=C(C)CC1 (stereo not drawn) [l-4-T-C7]    2.96
CCCCCCCCCCCCCC(=O)OC1(C(C)C)CC=C(C)CC1 (stereo not drawn) [d-4-T-C14]    3.58
CC(C(=O)O)c1ccc(-c2ccccc2)c(F)c1 (stereo not drawn)    3.31
CCCCCCCCC=CCCCCCCCC(=O)OC1(C(C)C)CC=C(C)CC1 (stereo not drawn) [d-4-T-dC18]    1.85
CCCCCCC(=O)OC1(C(C)C)CC=C(C)CC1 (stereo not drawn) [d-4-T-C7]    3.74
CC1=CC[C@@](O)(C(C)C)CC1 [l-4-TER, l-4-terpineol, reference compound]    3.13
CC1=CCC(O)(C(C)C)CC1 (stereo not drawn) [d-4-TER, d-4-terpineol, reference compound]    3.60
CCCCCCCCC=CCCCCCCCC(=O)OC1(C(C)C)CC=C(C)CC1 (stereo not drawn) [l-4-T-dC18]    3.61
CCCCCCCCCCCCCC(=O)OC1(C(C)C)CC=C(C)CC1 (stereo not drawn) [l-4-T-C14]    2.45

====

Assay: In vitro permeation experiment of FP drug-in-adhesive patches in two-chamber diffusion cells
Assay type: in vitro ADME, rabbit
Settings: permeant R-FP; patch 5% drug (w/w); enhancer equimolar to 5% 4-TER
Method: Male, Japanese big-eared rabbits weighting 2.5–3.0 kg were purchased from the animal experimental center of North China University of Science and Technology. […] The steady-state flux (Js, µg/cm^2/h) was calculated from the slope of linear region of the plot. The lag-time was determined by extrapolating the linear portion of the curve to the abscissa. […]
Response key: true means ER (Q24h with enhancer/Q24h without enhancer) for R-FP >= 3; false means ER (Q24h with enhancer/Q24h without enhancer) for R-FP < 3.

CCCCCCCCC=CCCCCCCCC(=O)OC1(C(C)C)CC=C(C)CC1 (stereo not drawn) [d-4-T-dC18]    true
CC1=CC[C@@](O)(C(C)C)CC1 [l-4-TER, l-4-terpineol, reference compound]    false
CCCCCCCCC=CCCCCCCCC(=O)OC1(C(C)C)CC=C(C)CC1 (stereo not drawn) [l-4-T-dC18]    true
CC1=CCC(O)(C(C)C)CC1 (stereo not drawn) [d-4-TER, d-4-terpineol, reference compound]    false
CCCCCCCCCCCCCC(=O)OC1(C(C)C)CC=C(C)CC1 (stereo not drawn) [d-4-T-C14]    true
CCCCCCC(=O)OC1(C(C)C)CC=C(C)CC1 (stereo not drawn) [d-4-T-C7]    false
CCCCCCC(=O)OC1(C(C)C)CC=C(C)CC1 (stereo not drawn) [l-4-T-C7]    false

====

experiment: In vitro permeation experiment of FP drug-in-adhesive patches in two-chamber diffusion cells; type: in vitro ADME, rabbit; details: permeant SR-FP; patch 5% drug (w/w); enhancer equimolar to 5% 4-TER
We begin with a simple list: items and their reported ER (Q24h with enhancer/Q24h without enhancer) for SR-FP.
READOUT_TYPE: ER (Q24h with enhancer/Q24h without enhancer) for SR-FP

CCCCCCCCCCCCCC(=O)OC1(C(C)C)CC=C(C)CC1 (stereo not drawn) [l-4-T-C14]    1.92
CCCCCCCCC=CCCCCCCCC(=O)OC1(C(C)C)CC=C(C)CC1 (stereo not drawn) [l-4-T-dC18]    4.45
CCCCCCC(=O)OC1(C(C)C)CC=C(C)CC1 (stereo not drawn) [d-4-T-C7]    2.14
CC1=CC[C@@](O)(C(C)C)CC1 [l-4-TER, l-4-terpineol, reference compound]    1.81
CCCCCCCCCCCCCC(=O)OC1(C(C)C)CC=C(C)CC1 (stereo not drawn) [d-4-T-C14]    2.85
CCCCCCC(=O)OC1(C(C)C)CC=C(C)CC1 (stereo not drawn) [l-4-T-C7]    1.35
CCCCCCCCC=CCCCCCCCC(=O)OC1(C(C)C)CC=C(C)CC1 (stereo not drawn) [d-4-T-dC18]    2.77
CC1=CCC(O)(C(C)C)CC1 (stereo not drawn) [d-4-TER, d-4-terpineol, reference compound]    2.16

====

assay: In vitro permeation experiment of FP drug-in-adhesive patches in two-chamber diffusion cells; assay type: in vitro ADME, rabbit; conditions: permeant R-FP; patch 5% drug (w/w); enhancer equimolar to 5% 4-TER (control: no enhancer); mean ± SD, n = 4
READOUT_TYPE: Js of R-FP (μg/cm^2/h)

CCCCCCCCCCCCCC(=O)OC1(C(C)C)CC=C(C)CC1 (stereo not drawn) [l-4-T-C14]    7.62
CCCCCCC(=O)OC1(C(C)C)CC=C(C)CC1 (stereo not drawn) [l-4-T-C7]    3.19
CCCCCCCCC=CCCCCCCCC(=O)OC1(C(C)C)CC=C(C)CC1 (stereo not drawn) [l-4-T-dC18]    12.04
CC1=CCC(O)(C(C)C)CC1 (stereo not drawn) [d-4-TER, d-4-terpineol, reference compound]    7.34
CCCCCCCCC=CCCCCCCCC(=O)OC1(C(C)C)CC=C(C)CC1 (stereo not drawn) [d-4-T-dC18]    11.81
CCCCCCCCCCCCCC(=O)OC1(C(C)C)CC=C(C)CC1 (stereo not drawn) [d-4-T-C14]    8.16
CCCCCCC(=O)OC1(C(C)C)CC=C(C)CC1 (stereo not drawn) [d-4-T-C7]    4.40
CC1=CC[C@@](O)(C(C)C)CC1 [l-4-TER, l-4-terpineol, reference compound]    6.99
C[C@@H](C(=O)O)c1ccc(-c2ccccc2)c(F)c1    2.43

====

Experiment: In vitro permeation experiment of FP drug-in-adhesive patches in two-chamber diffusion cells
Type: in vitro ADME, rabbit
Details: permeant SR-FP; patch 5% drug (w/w); enhancer equimolar to 5% 4-TER (control: no enhancer); mean ± SD, n = 4
Protocol: Male, Japanese big-eared rabbits weighting 2.5–3.0 kg were purchased from the animal experimental center of North China University of Science and Technology. […] The steady-state flux (Js, µg/cm^2/h) was calculated from the slope of linear region of the plot. The lag-time was determined by extrapolating the linear portion of the curve to the abscissa. […]
READOUT_TYPE: Js of SR-FP

CCCCCCCCCCCCCC(=O)OC1(C(C)C)CC=C(C)CC1 (stereo not drawn) [l-4-T-C14]    11.83 ± 6.27 μg/cm^2/h
CCCCCCCCCCCCCC(=O)OC1(C(C)C)CC=C(C)CC1 (stereo not drawn) [d-4-T-C14]    18.79 ± 3.81 μg/cm^2/h
CCCCCCC(=O)OC1(C(C)C)CC=C(C)CC1 (stereo not drawn) [d-4-T-C7]    14.46 ± 1.52 μg/cm^2/h
CC1=CCC(O)(C(C)C)CC1 (stereo not drawn) [d-4-TER, d-4-terpineol, reference compound]    14.43 ± 3.62 μg/cm^2/h
CCCCCCCCC=CCCCCCCCC(=O)OC1(C(C)C)CC=C(C)CC1 (stereo not drawn) [l-4-T-dC18]    20.53 ± 3.11 μg/cm^2/h
CCCCCCC(=O)OC1(C(C)C)CC=C(C)CC1 (stereo not drawn) [l-4-T-C7]    6.58 ± 1.41 μg/cm^2/h
CC1=CC[C@@](O)(C(C)C)CC1 [l-4-TER, l-4-terpineol, reference compound]    11.43 ± 2.06 μg/cm^2/h
CCCCCCCCC=CCCCCCCCC(=O)OC1(C(C)C)CC=C(C)CC1 (stereo not drawn) [d-4-T-dC18]    17.57 ± 4.13 μg/cm^2/h
CC(C(=O)O)c1ccc(-c2ccccc2)c(F)c1 (stereo not drawn)    5.54 ± 0.37 μg/cm^2/h
